Where do these numbers come from? They come from patent US6914045B2.

System: Enterococcus sp.
Test: in vitro antibacterial evaluation, MIC by broth dilution
Format: cell-based
Settings: broth dilution, 18 hours at 35° C.; strain GC 4554
Description: Methods for in vitro Antibacterial Evaluation (Table 1) […]
Numbered stars: 1 amine (or outer) side, 2 acyl side, 3 side chain; on linkers, the order of the positions; unused ones are H or OH. Square brackets hold non-standard residues; d marks the D form. Peptide text beside a SMILES is read from it. * marks the point of attachment. ξ: configuration not given here. X1 = N=C1NCC(C(O)C(N[*:1])C(=O)[*:2])N1C1OC(CO)C(O)C(O)C1O; ξEnduracididine(βξ-OH,4'ξ) = N=C1NCC(C(O)C(N)C(=O)O)N1; X2 = OCC1OC(OC2C(CO)OC(*)C(O)C2O)C(O)C(O)C1O
API: label(entry) gives Met if the entry's MIC Enterococcus faecalis (GC 4554) is strictly smaller than 20 µg/mL; on equality or larger values it gives Not met.

Worked set:
# COMPOUND, CAT
measured = [
    ("CC(=O)OCC1OC(OC2C(CO)OC(Oc3ccc(CC4NC(=O)C(C(C)c5ccccc5)NC(=O)CNC(=O)C(CO)NC(=O)C(C(O)C5CNC(=N)N5C5OC(CO)C(O)C(O)C5O)NC(=O)C(C(O)C5CNC(=N)N5)NC4=O)cc3)C(O)C2O)C(O)C(OC(=O)CCC(C)C)C1O (centres unmarked) [Example 270b]", "Not met"),
    ("COc1ccc(COCC2OC(OC3C(CO)OC(Oc4ccc(CC5NC(=O)C(C(C)c6ccccc6)NC(=O)CNC(=O)C(CO)NC(=O)C(C(O)C6CNC(=N)N6C6OC(CO)C(O)C(O)C6O)NC(=O)C(C(O)C6CNC(=N)N6)NC5=O)cc4)C(O)C3O)C(O)C(O)C2O)cc1F (centres unmarked) [Example 237]", "Not met"),
    ("CC(c1ccccc1)C1NC(=O)CNC(=O)C(CO)NC(=O)C(C(O)C2CNC(=N)N2C2OC(CO)C(O)C(O)C2O)NC(=O)C(C(O)C2CNC(=N)N2)NC(=O)C(Cc2ccc(OC3OC(CO)C(OC4OC5COC(c6cccs6)OC5C(O)C4O)C(O)C3O)cc2)NC1=O (centres unmarked) [Example 132]", "Met"),
    ("CC(C)=CCCC(C)C1OCC2OC(OC3C(CO)OC(Oc4ccc(CC5NC(=O)C(C(C)c6ccccc6)NC(=O)CNC(=O)C(CO)NC(=O)C(C(O)C6CNC(=N)N6C6OC(CO)C(O)C(O)C6O)NC(=O)C(C(O)C6CNC(=N)N6)NC5=O)cc4)C(O)C3O)C(O)C(O)C2O1 (centres unmarked) [Example 125]", "Not met"),
    ("CC(C)CC(=O)OC1C(OC2C(CO)OC(Oc3ccc(CC4NC(=O)C(C(C)c5ccc(F)cc5)NC(=O)CNC(=O)C(CO)NC(=O)C(C(O)C5CNC(=N)N5C5OC(CO)C(O)C(O)C5O)NC(=O)C(C(O)C5CNC(=N)N5)NC4=O)cc3)C(O)C2O)OC(CO)C(O)C1O (centres unmarked) [Example 261b]", "Not met"),
]

Please look at the following compound next.
// query Check if MIC Enterococcus faecalis (GC 4554) falls below 20 µg/mL for N=C1NCC(C(O)C2NC(=O)C(Cc3ccc(OC4OC(CO)C(OC5OC(CO)C(O)C(O)C5O)C(O)C4O)cc3)NC(=O)C(Cc3ccccc3)NC(=O)CNC(=O)C(CO)NC(=O)C(C(O)C3CNC(=N)N3C3OC(CO)C(O)C(O)C3O)NC2=O)N1 (stereo not drawn) [Example 282] (cyclo(GFY(X2)[ξEnduracididine(βξ-OH,4'ξ)][X1]S); configuration not given here) .
// result Not met
